Literature-derived pIC50 for PIK3CA (human) (UniProt P42336) follows.
pIC50: −log10 of the molar value.
reportedProperty: pIC50

[
  {
    "compound": "C#CCN(C(C)C(C)(C)O)[C@H]1CC[C@H](CNc2nc(N3CCOCC3)cc(-n3c(C(F)F)nc4ccccc43)n2)CC1 (stereo partly drawn)",
    "experimentalTarget": "PIK3CA (human) (UniProt P42336)",
    "reportedProperty": "pIC50",
    "val": 5.96
  },
  {
    "compound": "CC(C)n1cnc2c(N3CCOCC3)nc(-c3ccc(OCCCCCCC(=O)NO)cc3)nc21",
    "experimentalTarget": "PIK3CA (human) (UniProt P42336)",
    "reportedProperty": "pIC50",
    "val": "7.00 to 8.00"
  },
  {
    "compound": "CNC(=O)C(C)Cn1cnc2ccc(-c3cnc(OC)c(NS(=O)(=O)c4cc(Cl)ccc4Cl)c3)cc2c1=O (single isomer, unassigned)",
    "experimentalTarget": "PIK3CA (human) (UniProt P42336)",
    "reportedProperty": "pIC50",
    "val": 9.02
  },
  {
    "compound": "Nc1nc2cc(-c3nn(C[C@@H]4SSC[C@H]4OC(=O)c4ccccc4)c4ncnc(N)c34)ccc2o1 (relative stereo)",
    "experimentalTarget": "PIK3CA (human) (UniProt P42336)",
    "reportedProperty": "pIC50",
    "val": "6.00 to 7.00"
  },
  {
    "compound": "CC(C)(O)[C@@H]1CCCN1C1CCC(COc2cc(-n3c(C(F)F)nc4ccccc43)nc(N3CCOCC3)n2)CC1 (stereo partly drawn)",
    "experimentalTarget": "PIK3CA (human) (UniProt P42336)",
    "reportedProperty": "pIC50",
    "val": 5.44
  },
  {
    "compound": "Cc1cccc2cc([C@H](C)Nc3nc(N)nc4[nH]cnc34)n(-c3ccccc3)c(=O)c12",
    "experimentalTarget": "PIK3CA (human) (UniProt P42336)",
    "reportedProperty": "pIC50",
    "val": "> 6.00"
  },
  {
    "compound": "CC(C)n1ccc2c(N3CCOCC3)nc(-c3ccc(NC(=O)Nc4ccc(C(=O)N5CCNCC5)cc4)cc3)nc21",
    "experimentalTarget": "PIK3CA (human) (UniProt P42336)",
    "reportedProperty": "pIC50",
    "val": "> 8.64"
  },
  {
    "compound": "C[C@H](Nc1ncnc2scnc12)c1cc2cccc(Cl)c2c(C(=O)N2CCCOCC2)n1",
    "experimentalTarget": "PIK3CA (human) (UniProt P42336)",
    "reportedProperty": "pIC50",
    "val": "> 5.00"
  },
  {
    "compound": "C[C@H](NC(=O)c1nc(-c2csc(S(C)(=O)=O)n2)cnc1N)c1cc2cccc(Cl)c2c(=O)n1-c1ccccc1",
    "experimentalTarget": "PIK3CA (human) (UniProt P42336)",
    "reportedProperty": "pIC50",
    "val": "< 5.00"
  },
  {
    "compound": "O=C1CCN(C(=O)N2CCOc3ccc(-c4cnc5[nH]cnc5c4)cc3C2)C(c2cccc(F)c2)C1 (stereo not drawn)",
    "experimentalTarget": "PIK3CA (human) (UniProt P42336)",
    "reportedProperty": "pIC50",
    "val": "6.30 to 6.70"
  },
  {
    "compound": "CC(C)(C#N)c1ccc(-c2n[nH]c3cnc4ccc(-c5cnc6ccccc6c5)cc4c23)cc1",
    "experimentalTarget": "PIK3CA (human) (UniProt P42336)",
    "reportedProperty": "pIC50",
    "val": "< 7.70"
  },
  {
    "compound": "CC(C)(C)OC(=O)N1CCC(n2ccc3c(N4CCOCC4)nc(-c4ccc(NC(=O)Nc5cccnc5)cc4)nc32)CC1",
    "experimentalTarget": "PIK3CA (human) (UniProt P42336)",
    "reportedProperty": "pIC50",
    "val": 4.96
  },
  {
    "compound": "C[C@H](Nc1ncnc2scnc12)c1cc2cccc(Cl)c2c(N2CCN(C)CC2)n1",
    "experimentalTarget": "PIK3CA (human) (UniProt P42336)",
    "reportedProperty": "pIC50",
    "val": "> 5.00"
  },
  {
    "compound": "CN(C)CCn1cnc2ccc(-c3ccc4oc(N)nc4c3)cc2c1=O",
    "experimentalTarget": "PIK3CA (human) (UniProt P42336)",
    "reportedProperty": "pIC50",
    "val": "> 5.00"
  },
  {
    "compound": "CCNc1nc2ccc(-c3ccc4c(c3)CN(c3nc(C)nc5cc(OCC)ccc35)CCO4)cc2[nH]1",
    "experimentalTarget": "PIK3CA (human) (UniProt P42336)",
    "reportedProperty": "pIC50",
    "val": "5.70 to 6.00"
  }
]

====

Literature-derived IC50 for PIK3CA (human) follows.

[
  {
    "inputSmiles": "CN1CCC(NC(=O)Nc2ccc(Nc3nc(Nc4ccc(C(N)=O)cc4)c4cnn(C)c4n3)cc2)CC1",
    "outputUnit": "µM",
    "limitOperator": "=",
    "IC50": 0.199
  },
  {
    "inputSmiles": "Nc1nc2ccc(-c3ccc4nnc(C(=O)N5CCCC5)n4c3)cc2o1",
    "outputUnit": "µM",
    "limitOperator": "<",
    "IC50": 10
  },
  {
    "inputSmiles": "CC1(C)COCCN1C(=O)c1cnc2ccc(-c3ccc4oc(N)nc4c3)cn12",
    "outputUnit": "µM",
    "limitOperator": "<",
    "IC50": 1
  },
  {
    "inputSmiles": "COc1ccc(N2CCC(CNc3nc(N4CCOCC4)cc(-n4c(C(F)F)nc5ccccc54)n3)CC2)cc1",
    "outputUnit": "µM",
    "limitOperator": "=",
    "IC50": 2.9
  },
  {
    "inputSmiles": "Nc1nc2cc(-c3ccc4ncc(C(=O)N5CCCC5)n4c3)ccc2o1",
    "outputUnit": "µM",
    "limitOperator": "<",
    "IC50": 0.1
  }
]

====

Literature-derived IC50 for PIK3CA (human) (UniProt P42336) follows.

[
  {
    "compound": "CC(=O)Nc1nc2ccc(-c3cc(F)c4oc(N)nc4c3)cc2s1",
    "experimentalTarget": "PIK3CA (human) (UniProt P42336)",
    "IC50": "< 100 nM"
  },
  {
    "compound": "COc1ncc(-c2cc(O[C@@H]3CCOC3)c3ncnc(C)c3c2)cc1NS(=O)(=O)c1ccc(F)cc1F",
    "experimentalTarget": "PIK3CA (human) (UniProt P42336)",
    "IC50": "0.76 nM"
  },
  {
    "compound": "CCCS(=O)(=O)Nc1cccc(-c2cc(OC)c3nc(-c4cnc(N)c(C)c4)nc(N4CCOCC4)c3c2)c1F",
    "experimentalTarget": "PIK3CA (human) (UniProt P42336)",
    "IC50": "100 to 1000 nM"
  },
  {
    "compound": "COc1ccccc1Oc1cc(=O)[nH]c2ccccc12",
    "experimentalTarget": "PIK3CA (human) (UniProt P42336)",
    "IC50": "4680 nM"
  },
  {
    "compound": "Cn1ncc2c(-c3cnc(N)nc3)nc(N3CCOCC3)nc21",
    "experimentalTarget": "PIK3CA (human) (UniProt P42336)",
    "IC50": "100 to 10000 nM"
  },
  {
    "compound": "C[C@H](NC(=O)c1c(N)nn2cccnc12)c1cc2cccc(-c3cccnc3)c2c(=O)n1-c1ccccc1",
    "experimentalTarget": "PIK3CA (human) (UniProt P42336)",
    "IC50": "1000 to 10000 nM"
  },
  {
    "compound": "Cc1cccc2cc(Cn3nc(I)c4c(N)ncnc43)n(C)c(=O)c12",
    "experimentalTarget": "PIK3CA (human) (UniProt P42336)",
    "IC50": "> 10000 nM"
  },
  {
    "compound": "COCC(C)N[C@H]1CC[C@H](CNc2nc(N3CCOCC3)cc(-n3c(C(F)F)nc4ccccc43)n2)CC1 (stereo partly shown)",
    "experimentalTarget": "PIK3CA (human) (UniProt P42336)",
    "IC50": "3200 nM"
  },
  {
    "compound": "Nc1nc2cc(-c3ccc4ncc(C(=O)N5CC[C@@H](O)C5)n4c3)ccc2o1",
    "experimentalTarget": "PIK3CA (human) (UniProt P42336)",
    "IC50": "< 100 nM"
  },
  {
    "compound": "COc1cc(-c2ccc3ncc4ncn(-c5ccc(C(C)(C)C#N)nc5)c4c3n2)cnc1N",
    "experimentalTarget": "PIK3CA (human) (UniProt P42336)",
    "IC50": "< 100 nM"
  },
  {
    "compound": "C[C@H](NC(=O)c1nc(-c2cccc(S(=O)(=O)NC3CC3)c2)cnc1N)c1cc2cccc(Cl)c2c(=O)n1C",
    "experimentalTarget": "PIK3CA (human) (UniProt P42336)",
    "IC50": "100 to 1000 nM"
  },
  {
    "compound": "COc1cccc(-c2cnc(N)c(C(=O)N[C@@H](C)c3cc4cccc(Cl)c4c(=O)n3-c3ccccc3)n2)c1",
    "experimentalTarget": "PIK3CA (human) (UniProt P42336)",
    "IC50": "> 10000 nM"
  },
  {
    "compound": "C=CC(=O)Nc1cccc(-c2csc3c(=S)cc(N4CCOCC4)oc23)c1",
    "experimentalTarget": "PIK3CA (human) (UniProt P42336)",
    "IC50": "< 1000 nM"
  },
  {
    "compound": "Cc1cccc2cc([C@H](C)Nc3ncnc4[nH]cc(C#N)c34)n(-c3ccccc3)c(=O)c12",
    "experimentalTarget": "PIK3CA (human) (UniProt P42336)",
    "IC50": "< 1000 nM"
  },
  {
    "compound": "Cc1ccccc1-n1c(Cn2nc(-c3ccc(O)c(Cl)c3)c3c(N)ncnc32)nc2scc(C)c2c1=O",
    "experimentalTarget": "PIK3CA (human) (UniProt P42336)",
    "IC50": "> 10000 nM"
  },
  {
    "compound": "Cc1ccccc1-n1c(Cn2nc(-c3cccc(F)c3)c3c(N)ncnc32)cc2cccc(C)c2c1=O",
    "experimentalTarget": "PIK3CA (human) (UniProt P42336)",
    "IC50": "> 10000 nM"
  }
]
